- assayTarget: T1, ADI-70330
- T1 construct: anti-CD3 antibody made in CHO cells, captured by anti-human Fc
- T1 sequence (VH, as listed by the source limits assumed, chain 1 of 2): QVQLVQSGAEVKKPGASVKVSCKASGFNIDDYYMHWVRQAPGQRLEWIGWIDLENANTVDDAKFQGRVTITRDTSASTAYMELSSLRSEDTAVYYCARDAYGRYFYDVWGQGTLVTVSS
- T1 sequence (VL, as listed by the source limits assumed, chain 2 of 2): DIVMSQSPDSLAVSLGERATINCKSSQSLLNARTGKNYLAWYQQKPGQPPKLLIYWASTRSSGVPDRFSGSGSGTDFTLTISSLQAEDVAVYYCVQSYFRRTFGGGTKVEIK
- experimentDescription: SPR Carterra avidity, yeast anti-ID
pKd: −log10 of the molar value.
readoutLabel: pKd

binder	number
ADI-34135 (antibody, V domains shown, anti-ID IgG) VH: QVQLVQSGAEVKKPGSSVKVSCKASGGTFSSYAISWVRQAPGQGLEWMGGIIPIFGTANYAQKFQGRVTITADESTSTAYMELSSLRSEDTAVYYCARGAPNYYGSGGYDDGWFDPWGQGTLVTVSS VL: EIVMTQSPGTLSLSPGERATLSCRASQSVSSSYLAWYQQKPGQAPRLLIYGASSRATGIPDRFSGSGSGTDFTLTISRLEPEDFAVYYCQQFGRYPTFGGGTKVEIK	9.33
